protocolDescription: 13-week repeated oral toxicity: weight measurement
Assay type: in vivo, beagle
measurementSetup: 200 mg/kg repeated oral (G2), female, week 1, mean
observedProperty: Weight, Mean (kg)
Answers are plain numbers, in kg.

*Q* Supply reported Weight, Mean belonging to this compound: CN1C(=O)NC(=O)C1O (stereo not shown) [KBP-001]
*A* 9.6

* * *

Test system: beagles
protocolDescription: 13-week repeated oral toxicity: hematological test
Assay type: in vivo, beagle
measurementSetup: G2 200 mg/kg group, female (F4-F6, Mean), before administration (day 0); mean
observedProperty: MCV

*Q* Give MCV for CN1C(=O)NC(=O)C1O (stereo not shown) tested on beagles.
*A* 66.9 fL
